test: Pharmacokinetics of ALX-171 after i.v. and p.o. administration; assay type: in vivo; settings: mouse, po; plasma, p.o. 5 mg/kg, female BALB/c mice
parameter: Cmax (nM)
The answer is to be given in nM; state only the numeric part.

Task: Item COc1cccc(-c2ccc3nc(-c4ccccc4Cl)n(C)c(=O)c3c2)c1OC [ALX-171] has what recorded Cmax?
Result: 1090

----------
experiment: Pharmacokinetics and brain uptake in mice after i.p. administration; type: in vivo, mouse (Albino Swiss); conditions: ip; mouse Albino Swiss, 10 mg/kg i.p., plasma
parameter: Cmax (µM)
Please give a number only; it is taken to be in µM.

Cn1c(-c2ccccc2Cl)nc2ccc(-c3ccccc3)cc2c1=O ... 2.28

Note: attention shifts to another entry.
Task: Entry COc1cccc(-c2ccc3nc(-c4ccccc4Cl)n(C)c(=O)c3c2)c1OC : reported Cmax = ?
Result: 4.46
